assay: Phase 1 study Part 2: single-dose plasma pharmacokinetics, relative bioavailability (tablet vs AIC) and food effect in healthy subjects; type: in vivo, human; settings: human, plasma, po, 200 mg, following a single oral dose of 200 mg; read-out: terminal elimination t1/2 (converted)
QUANTITY_MEASURED: half-life

                                   compound  result
0  C[C@@H]1CC[C@@H](Nc2nc(NC(C)(C)C)ncc2C(N)=O)C[C@H]1O [Compound 1]   ~20 h

---

test: Phase 1 study Part 1: plasma pharmacokinetics after multiple oral doses of Compound 1 as AIC (QD×6 days) in healthy subjects; format: in vivo, human; settings: human, plasma; following single or multiple oral doses at the dose levels evaluated; postdose; read-out: median Tmax
QUANTITY_MEASURED: Tmax

                               smiles_entry  quantity_measured    result
0  C[C@@H]1CC[C@@H](Nc2nc(NC(C)(C)C)ncc2C(N)=O)C[C@H]1O               Tmax  1 to 4 h

The reported numbers originate from patent US10131639B2.
